// data source = patent US10047051B2

experimental.system: CFTR-R117H (Homo sapiens, UniProt P13569, R117H)
Sequence (P13569 whole entry R117H): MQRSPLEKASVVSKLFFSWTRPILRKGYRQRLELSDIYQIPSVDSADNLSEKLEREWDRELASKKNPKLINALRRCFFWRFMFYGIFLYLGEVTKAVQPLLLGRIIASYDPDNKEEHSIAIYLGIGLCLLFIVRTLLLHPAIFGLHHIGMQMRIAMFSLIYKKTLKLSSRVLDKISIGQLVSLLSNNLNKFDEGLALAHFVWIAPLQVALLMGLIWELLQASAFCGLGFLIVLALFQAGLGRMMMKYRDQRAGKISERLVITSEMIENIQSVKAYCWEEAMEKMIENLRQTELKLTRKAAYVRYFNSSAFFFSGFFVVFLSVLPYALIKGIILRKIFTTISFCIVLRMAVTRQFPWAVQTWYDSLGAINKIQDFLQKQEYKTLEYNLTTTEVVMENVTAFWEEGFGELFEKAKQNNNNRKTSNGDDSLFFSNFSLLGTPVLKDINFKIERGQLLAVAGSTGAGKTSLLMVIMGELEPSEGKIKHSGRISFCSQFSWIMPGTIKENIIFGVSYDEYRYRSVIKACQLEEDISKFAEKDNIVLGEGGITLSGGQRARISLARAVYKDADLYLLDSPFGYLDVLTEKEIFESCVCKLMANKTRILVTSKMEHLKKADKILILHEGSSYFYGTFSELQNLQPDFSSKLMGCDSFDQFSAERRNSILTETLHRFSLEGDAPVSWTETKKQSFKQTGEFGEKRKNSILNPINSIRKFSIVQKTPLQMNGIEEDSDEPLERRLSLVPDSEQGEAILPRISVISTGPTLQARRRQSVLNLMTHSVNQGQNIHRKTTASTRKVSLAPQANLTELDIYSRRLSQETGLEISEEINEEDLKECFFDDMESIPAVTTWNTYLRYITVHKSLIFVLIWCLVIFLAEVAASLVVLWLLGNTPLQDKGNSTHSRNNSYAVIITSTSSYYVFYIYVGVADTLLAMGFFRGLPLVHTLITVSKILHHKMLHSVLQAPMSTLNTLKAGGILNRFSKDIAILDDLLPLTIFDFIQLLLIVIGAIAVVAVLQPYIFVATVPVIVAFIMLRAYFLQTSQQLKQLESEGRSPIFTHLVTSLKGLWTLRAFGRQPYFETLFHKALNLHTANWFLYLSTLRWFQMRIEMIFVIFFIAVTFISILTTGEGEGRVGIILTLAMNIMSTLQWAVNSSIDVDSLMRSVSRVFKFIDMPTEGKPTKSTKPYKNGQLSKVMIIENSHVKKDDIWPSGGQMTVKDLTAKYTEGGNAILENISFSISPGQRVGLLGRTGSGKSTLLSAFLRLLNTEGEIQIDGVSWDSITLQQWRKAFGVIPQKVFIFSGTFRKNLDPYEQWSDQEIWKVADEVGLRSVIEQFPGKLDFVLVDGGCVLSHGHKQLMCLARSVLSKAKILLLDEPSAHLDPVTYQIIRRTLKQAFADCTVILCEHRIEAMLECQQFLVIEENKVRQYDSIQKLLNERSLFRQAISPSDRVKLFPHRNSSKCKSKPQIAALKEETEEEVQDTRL
experiment.notes: YFP-halide influx assay for the CFTR-R117H

>  <molecule>
Nc1cc(S(=O)(=O)c2ccc(F)cc2)cnc1C(=O)NC[C@@H](O)C(F)(F)F

>  <EC50 [nM]>
148

$$$$
>  <molecule>
Nc1cc(S(=O)(=O)c2ccc(OC(F)(F)F)cc2)cnc1C(=O)N[C@@H]1COC[C@H]1O (racemic)

>  <EC50 [nM]>
866

$$$$
>  <molecule>
CC1(O)CN(C(=O)c2ncc(S(=O)(=O)c3ccc(C(F)(F)F)cc3)cc2N)C1

>  <EC50 [nM]>
326

$$$$
>  <molecule>
Nc1cc(S(=O)(=O)c2ccc(F)cc2)cnc1C(=O)N1CC(O)(C(F)(F)F)C1

>  <EC50 [nM]>
22.7

$$$$
>  <molecule>
Nc1cc(S(=O)(=O)c2ccc(C(F)(F)F)cc2)cnc1C(=O)NC[C@@H](O)C(F)(F)F

>  <EC50 [nM]>
152

$$$$
>  <molecule>
Nc1cc(S(=O)(=O)c2ccc(OC(F)(F)F)cc2)cnc1C(=O)NCC(O)COCC1CC1 (stereo not drawn)

>  <EC50 [nM]>
866

$$$$
>  <molecule>
COCC(O)CNC(=O)c1ncc(S(=O)(=O)c2ccc(OC(F)(F)F)cc2)cc1N (stereo not drawn)

>  <EC50 [nM]>
451

$$$$
>  <molecule>
Nc1cc(S(=O)(=O)c2ccccc2OC(F)(F)F)cnc1C(=O)NCCO

>  <EC50 [nM]>
472

$$$$
>  <molecule>
COCC1(C)CN(C(=O)c2ncc(S(=O)(=O)c3ccc(OC(F)(F)F)cc3)cc2N)C1

>  <EC50 [nM]>
499

$$$$

====

experimental.system: CFTR G551D mutant (Homo sapiens, UniProt P13569, G551D)
Construct: expressed in transfected cells; host or cells: HEK293 cells, reverse transfection with plasmids
Sequence (P13569 whole entry G551D): as the sequence (P13569 whole entry R117H) above, with H117R, G551D counted along it
experiment.notes: YFP-halide influx assay for the CFTR-G551D mutation (HEK293 cells)
Type: cell-based
setup.conditions: forskolin 10.67 μM
Measured % Activation, listed per entry for reference.

>  <compound>
C[C@H](O)CNC(=O)c1ncc(S(=O)(=O)c2ccc(C(F)(F)F)cc2)cc1N

>  <% Activation (%)>
59.1

$$$$
>  <compound>
COCCOCC(O)CNC(=O)c1ncc(S(=O)(=O)c2ccc(C(F)(F)F)cc2)cc1N (stereo not shown)

>  <% Activation (%)>
55.6

$$$$
>  <compound>
Nc1cc(S(=O)(=O)c2ccc(C(F)(F)F)cc2)cnc1C(=O)NCC(O)COCC(F)(F)F (stereo not shown)

>  <% Activation (%)>
59.8

$$$$
>  <compound>
CCS(=O)(=O)c1cc(N)c(C(=O)NC[C@H](C)O)nc1-c1ccc(F)cc1

>  <% Activation (%)>
5.99

$$$$

====

experimental.system: CFTR ΔF508 mutant (Homo sapiens, UniProt P13569, DEL508-508)
Sequence (P13569 with tags, fused parts or gaps DEL508-508): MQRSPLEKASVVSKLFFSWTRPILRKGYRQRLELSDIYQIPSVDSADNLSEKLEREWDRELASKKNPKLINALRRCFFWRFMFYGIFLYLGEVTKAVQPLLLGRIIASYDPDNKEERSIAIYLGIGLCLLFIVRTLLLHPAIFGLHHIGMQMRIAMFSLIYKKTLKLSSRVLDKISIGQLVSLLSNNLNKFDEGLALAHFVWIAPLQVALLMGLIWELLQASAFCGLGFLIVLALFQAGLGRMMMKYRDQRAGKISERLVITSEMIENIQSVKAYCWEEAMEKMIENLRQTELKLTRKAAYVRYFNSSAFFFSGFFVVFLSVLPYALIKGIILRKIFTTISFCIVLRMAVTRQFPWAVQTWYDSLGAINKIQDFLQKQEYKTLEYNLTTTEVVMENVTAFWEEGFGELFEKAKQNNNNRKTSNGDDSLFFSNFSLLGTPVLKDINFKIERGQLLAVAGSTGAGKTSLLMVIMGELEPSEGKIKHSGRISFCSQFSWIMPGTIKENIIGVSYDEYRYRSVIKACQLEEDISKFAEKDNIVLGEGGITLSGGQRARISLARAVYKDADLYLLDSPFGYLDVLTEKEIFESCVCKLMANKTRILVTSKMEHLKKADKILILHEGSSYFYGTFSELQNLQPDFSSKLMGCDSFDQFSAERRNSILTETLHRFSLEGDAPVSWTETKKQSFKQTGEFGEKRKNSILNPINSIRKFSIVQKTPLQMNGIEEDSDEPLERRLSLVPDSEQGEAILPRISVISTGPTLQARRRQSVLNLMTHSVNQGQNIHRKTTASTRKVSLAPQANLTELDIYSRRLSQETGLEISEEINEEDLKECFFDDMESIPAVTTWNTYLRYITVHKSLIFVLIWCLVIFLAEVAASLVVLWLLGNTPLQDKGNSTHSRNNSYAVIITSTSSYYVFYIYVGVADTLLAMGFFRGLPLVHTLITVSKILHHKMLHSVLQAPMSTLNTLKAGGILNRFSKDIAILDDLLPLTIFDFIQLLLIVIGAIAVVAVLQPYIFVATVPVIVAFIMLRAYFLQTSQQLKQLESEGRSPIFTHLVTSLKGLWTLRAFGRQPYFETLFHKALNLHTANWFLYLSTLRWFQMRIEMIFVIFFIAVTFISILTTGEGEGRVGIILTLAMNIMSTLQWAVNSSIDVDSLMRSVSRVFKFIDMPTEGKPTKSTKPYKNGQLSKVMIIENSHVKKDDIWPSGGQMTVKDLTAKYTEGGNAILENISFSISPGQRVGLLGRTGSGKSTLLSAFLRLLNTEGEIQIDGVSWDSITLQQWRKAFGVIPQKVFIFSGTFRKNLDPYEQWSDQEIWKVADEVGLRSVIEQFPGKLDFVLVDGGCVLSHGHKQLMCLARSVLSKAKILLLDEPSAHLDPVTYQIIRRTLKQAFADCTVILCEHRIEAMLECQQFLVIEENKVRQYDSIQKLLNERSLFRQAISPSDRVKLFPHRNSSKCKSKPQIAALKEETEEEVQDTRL
experiment.notes: YFP-halide influx assay for the CFTR-ΔF508 mutation (CFBE41o- cells)
setup.conditions: forskolin 10.67 μM, from (1−F/F0) vs concentration plot
pEC50: −log10 of the molar value.
Measured pEC50, listed per entry for reference.
measurement.type: pEC50

>  <compound>
CC(C)COCC(O)CNC(=O)c1ncc(S(=O)(=O)c2ccc(C(F)(F)F)cc2F)cc1N (stereo not shown)

>  <experimental.system>
CFTR ΔF508 mutant (Homo sapiens, UniProt P13569, DEL508-508)

>  <comparison.symbol>
=

>  <value.measured>
8.18

$$$$
>  <compound>
CCOCC(O)CNC(=O)c1ncc(S(=O)(=O)c2ccc(OC(F)(F)F)cc2)cc1N (stereo not shown)

>  <experimental.system>
CFTR ΔF508 mutant (Homo sapiens, UniProt P13569, DEL508-508)

>  <comparison.symbol>
=

>  <value.measured>
7.91

$$$$
>  <compound>
Nc1cc(S(=O)(=O)c2ccc(OC(F)(F)F)cc2)cnc1C(=O)N1CC(O)(C2CC2)C1

>  <experimental.system>
CFTR ΔF508 mutant (Homo sapiens, UniProt P13569, DEL508-508)

>  <comparison.symbol>
=

>  <value.measured>
8.51

$$$$
>  <compound>
Nc1cc(S(=O)(=O)c2ccc(OC(F)(F)F)cc2F)cnc1C(=O)NC[C@@H](O)C(F)(F)F

>  <experimental.system>
CFTR ΔF508 mutant (Homo sapiens, UniProt P13569, DEL508-508)

>  <comparison.symbol>
=

>  <value.measured>
8.77

$$$$
>  <compound>
Nc1cc(S(=O)(=O)c2ccc(C(F)(F)F)cc2F)cnc1C(=O)N1CC(C(F)(F)F)C1

>  <experimental.system>
CFTR ΔF508 mutant (Homo sapiens, UniProt P13569, DEL508-508)

>  <comparison.symbol>
=

>  <value.measured>
7.63

$$$$
>  <compound>
Nc1cc(S(=O)(=O)c2ccc(C(F)(F)F)cc2)cnc1C(=O)N1CC(OCC(F)F)C1

>  <experimental.system>
CFTR ΔF508 mutant (Homo sapiens, UniProt P13569, DEL508-508)

>  <comparison.symbol>
=

>  <value.measured>
7.28

$$$$
>  <compound>
CN1CCC(O)(CNC(=O)c2ncc(S(=O)(=O)c3ccc(C(F)(F)F)cc3)cc2N)CC1

>  <experimental.system>
CFTR ΔF508 mutant (Homo sapiens, UniProt P13569, DEL508-508)

>  <comparison.symbol>
<

>  <value.measured>
5.70

$$$$
>  <compound>
Nc1cc(S(=O)(=O)c2ccc(C(F)(F)F)cc2F)cnc1C(=O)N1CC(O)(C(F)(F)F)C1

>  <experimental.system>
CFTR ΔF508 mutant (Homo sapiens, UniProt P13569, DEL508-508)

>  <comparison.symbol>
=

>  <value.measured>
8.59

$$$$
>  <compound>
Nc1cc(S(=O)(=O)c2ccc(C(F)(F)F)cc2F)cnc1C(=O)NC[C@@H](O)C(F)(F)F

>  <experimental.system>
CFTR ΔF508 mutant (Homo sapiens, UniProt P13569, DEL508-508)

>  <comparison.symbol>
=

>  <value.measured>
8.82

$$$$
>  <compound>
Nc1cc(S(=O)(=O)c2ccccc2)cnc1C(=O)NCC(O)C(F)(F)F (stereo not shown)

>  <experimental.system>
CFTR ΔF508 mutant (Homo sapiens, UniProt P13569, DEL508-508)

>  <comparison.symbol>
=

>  <value.measured>
8.07

$$$$
>  <compound>
CC1CCN(S(=O)(=O)c2cnc(C(=O)NCC(O)C(F)(F)F)c(N)c2)CC1 (stereo not shown)

>  <experimental.system>
CFTR ΔF508 mutant (Homo sapiens, UniProt P13569, DEL508-508)

>  <comparison.symbol>
=

>  <value.measured>
8.16

$$$$
>  <compound>
Nc1cc(S(=O)(=O)c2ccc(OC(F)(F)F)cc2)cnc1C(=O)NCCc1ccco1

>  <experimental.system>
CFTR ΔF508 mutant (Homo sapiens, UniProt P13569, DEL508-508)

>  <comparison.symbol>
=

>  <value.measured>
6.96

$$$$
>  <compound>
C[C@H](O)CNC(=O)c1nc(NC2CC2)c(S(=O)(=O)c2ccc(OC(F)(F)F)cc2)cc1N

>  <experimental.system>
CFTR ΔF508 mutant (Homo sapiens, UniProt P13569, DEL508-508)

>  <comparison.symbol>
=

>  <value.measured>
8.38

$$$$
>  <compound>
Nc1cc(S(=O)(=O)c2ccc(C(F)(F)F)cc2F)cnc1C(=O)N1CC(F)(F)C1

>  <experimental.system>
CFTR ΔF508 mutant (Homo sapiens, UniProt P13569, DEL508-508)

>  <comparison.symbol>
=

>  <value.measured>
8.09

$$$$
>  <compound>
Nc1cc(S(=O)(=O)c2ccc(OC(F)(F)F)cc2)cnc1C(=O)NCC1(O)CCOC1 (stereo not shown)

>  <experimental.system>
CFTR ΔF508 mutant (Homo sapiens, UniProt P13569, DEL508-508)

>  <comparison.symbol>
=

>  <value.measured>
7.30

$$$$
>  <compound>
Nc1cc(S(=O)(=O)c2ccc(C(F)(F)F)cc2)cnc1C(=O)NCCOC(F)(F)F

>  <experimental.system>
CFTR ΔF508 mutant (Homo sapiens, UniProt P13569, DEL508-508)

>  <comparison.symbol>
=

>  <value.measured>
6.86

$$$$
>  <compound>
CC(C)C1(O)CN(C(=O)c2ncc(S(=O)(=O)c3ccc(OC(F)(F)F)cc3F)cc2N)C1

>  <experimental.system>
CFTR ΔF508 mutant (Homo sapiens, UniProt P13569, DEL508-508)

>  <comparison.symbol>
=

>  <value.measured>
8.20

$$$$
>  <compound>
Nc1cc(S(=O)(=O)c2ccc(OC(F)(F)F)cc2)cnc1C(=O)NCC(O)COCC1CC1 (stereo not shown)

>  <experimental.system>
CFTR ΔF508 mutant (Homo sapiens, UniProt P13569, DEL508-508)

>  <comparison.symbol>
=

>  <value.measured>
7.73

$$$$
>  <compound>
CC(C)(O)C1CN(C(=O)c2ncc(S(=O)(=O)c3ccc(C(F)(F)F)cc3)cc2N)C1

>  <experimental.system>
CFTR ΔF508 mutant (Homo sapiens, UniProt P13569, DEL508-508)

>  <comparison.symbol>
=

>  <value.measured>
7.96

$$$$
>  <compound>
Nc1cc(S(=O)(=O)c2ccc(OC(F)(F)F)cc2)cnc1C(=O)NCCN1CCOCC1

>  <experimental.system>
CFTR ΔF508 mutant (Homo sapiens, UniProt P13569, DEL508-508)

>  <comparison.symbol>
=

>  <value.measured>
6.79

$$$$
>  <compound>
CCOCC1(CNC(=O)c2ncc(S(=O)(=O)c3ccc(OC(F)(F)F)cc3)cc2N)CCC1

>  <experimental.system>
CFTR ΔF508 mutant (Homo sapiens, UniProt P13569, DEL508-508)

>  <comparison.symbol>
=

>  <value.measured>
6.68

$$$$
>  <compound>
COC1CN(C(=O)c2ncc(S(=O)(=O)c3ccc(OC(F)(F)F)cc3)cc2N)C1

>  <experimental.system>
CFTR ΔF508 mutant (Homo sapiens, UniProt P13569, DEL508-508)

>  <comparison.symbol>
=

>  <value.measured>
7.43

$$$$
>  <compound>
Nc1cc(S(=O)(=O)c2ccc(C(F)(F)F)cc2)cnc1C(=O)N[C@@H]1COCC[C@@H]1O (racemic) [Compound 216]

>  <experimental.system>
CFTR ΔF508 mutant (Homo sapiens, UniProt P13569, DEL508-508)

>  <comparison.symbol>
=

>  <value.measured>
7.33

$$$$
>  <compound>
CC(C)(O)CNC(=O)c1ncc(S(=O)(=O)c2ccc(OC(F)(F)F)cc2)cc1N

>  <experimental.system>
CFTR ΔF508 mutant (Homo sapiens, UniProt P13569, DEL508-508)

>  <comparison.symbol>
=

>  <value.measured>
7.50

$$$$
>  <compound>
Nc1cc(S(=O)(=O)c2ccc(C(F)(F)F)cc2)c(C2CC2)nc1C(=O)NCCO

>  <experimental.system>
CFTR ΔF508 mutant (Homo sapiens, UniProt P13569, DEL508-508)

>  <comparison.symbol>
=

>  <value.measured>
8.00

$$$$
>  <compound>
Nc1cc(S(=O)(=O)c2ccc(OC(F)(F)F)cc2)cnc1C(=O)NC[C@@H](O)CO

>  <experimental.system>
CFTR ΔF508 mutant (Homo sapiens, UniProt P13569, DEL508-508)

>  <comparison.symbol>
=

>  <value.measured>
7.24

$$$$
>  <compound>
C[C@H](O)CNC(=O)c1nc(C2CC2)c(S(=O)(=O)c2ccc(F)cc2)cc1N

>  <experimental.system>
CFTR ΔF508 mutant (Homo sapiens, UniProt P13569, DEL508-508)

>  <comparison.symbol>
=

>  <value.measured>
8.16

$$$$
>  <compound>
COCCOCC(O)CNC(=O)c1ncc(S(=O)(=O)c2ccc(C(F)(F)F)cc2)cc1N (stereo not shown)

>  <experimental.system>
CFTR ΔF508 mutant (Homo sapiens, UniProt P13569, DEL508-508)

>  <comparison.symbol>
=

>  <value.measured>
7.26

$$$$
>  <compound>
Nc1cc(S(=O)(=O)c2ccc(C(F)(F)F)cc2)cnc1C(=O)NC[C@@H]1CCOC1

>  <experimental.system>
CFTR ΔF508 mutant (Homo sapiens, UniProt P13569, DEL508-508)

>  <comparison.symbol>
=

>  <value.measured>
7.55

$$$$
>  <compound>
Nc1cc(S(=O)(=O)c2ccc(C(F)(F)F)cc2)cnc1C(=O)N[C@H]1CCC[C@@H]1O

>  <experimental.system>
CFTR ΔF508 mutant (Homo sapiens, UniProt P13569, DEL508-508)

>  <comparison.symbol>
=

>  <value.measured>
8.05

$$$$
>  <compound>
CN1CC[C@H](NC(=O)c2ncc(S(=O)(=O)c3ccc(OC(F)(F)F)cc3)cc2N)C1

>  <experimental.system>
CFTR ΔF508 mutant (Homo sapiens, UniProt P13569, DEL508-508)

>  <comparison.symbol>
<

>  <value.measured>
6.18

$$$$
